The values you see were collected from patent US20240158446A1.

biological target: UniProt:P01116; experiment: Binding to KRAS by surface plasmon resonance (SPR), Single Cycle Kinetics; conditions: SPR Single Cycle Kinetics, GDP-bound KRAS wild-type protein, 1:1 binding model; read-out: KRAS KD
Where a SMILES comes first, the peptide text is derived from it. Bridges are numbered along the chain shown (N, C = ends). [ ]: non-standard residue; d: D form. The star is where a group is joined. hPhe(3-Cl-4-CF3) = N[C@@H](CCc1ccc(C(F)(F)F)c(Cl)c1)C(=O)O; NPrPhe(4-CF3) = CCCN[C@@H](Cc1ccc(C(F)(F)F)cc1)C(=O)O; NMeGly(cPent) = CN[C@H](C(=O)O)C1CCCC1; Pro(4,4-F2) = O=C(O)[C@@H]1CC(F)(F)CN1; NMeD = CN[C@@H](CC(=O)O)C(=O)O; NMeAbu = CC[C@H](NC)C(=O)O; Morpholide = C1CN(*)CCO1; NMeA = CN[C@@H](C)C(=O)O; Ac5c = NC1(C(=O)O)CCCC1; Aze = O=C(O)[C@@H]1CCN1; Sar = CNCC(=O)O
RESULT_TYPE: pKd
pKd is defined as minus the log10 of a concentration measured in mol/L.

Inquiry: For the record CCCN1C(=O)[C@@H]2CCN2C(=O)[C@H](C)N(C)C(=O)[C@H]([C@@H](C)CC)NC(=O)[C@H](CC)N(C)C(=O)C[C@@H](C(=O)N2CCOCC2)N(C)C(=O)[C@H](C2CCCC2)N(C)C(=O)C2(CCCC2)NC(=O)[C@@H]2CC(F)(F)CN2C(=O)[C@H](CCc2ccc(C(F)(F)F)c(Cl)c2)NC(=O)CN(C)C(=O)[C@@H]1Cc1ccc(C(F)(F)F)cc1 [PP0206] ([NMeAbu]I[NMeA][Aze][NPrPhe(4-CF3)][Sar][hPhe(3-Cl-4-CF3)][Pro(4,4-F2)][Ac5c][NMeGly(cPent)][NMeD]-Morpholide; lactam N-11) , what value of pKd is listed for UniProt:P01116?
Reply text: 10.15

* * *

target: GDP-bound KRAS wild-type protein (Homo sapiens, UniProt P01116); test: Binding to KRAS by surface plasmon resonance (SPR), Single Cycle Kinetics; details: SPR Single Cycle Kinetics, GDP-bound KRAS wild-type protein, 1:1 binding model; read-out: KRAS KD
Sequence (P01116 whole entry): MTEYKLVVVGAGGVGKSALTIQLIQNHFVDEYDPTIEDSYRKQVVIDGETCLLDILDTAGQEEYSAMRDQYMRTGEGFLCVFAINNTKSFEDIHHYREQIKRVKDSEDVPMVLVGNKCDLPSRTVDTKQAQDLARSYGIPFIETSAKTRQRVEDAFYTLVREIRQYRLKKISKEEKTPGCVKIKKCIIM
Where a SMILES comes first, the peptide text is derived from it. Bridges are numbered along the chain shown (N, C = ends). [ ]: non-standard residue; d: D form. The star is where a group is joined. hPhe(3-Cl-4-CF3) = N[C@@H](CCc1ccc(C(F)(F)F)c(Cl)c1)C(=O)O; NPrPhe(4-CF3) = CCCN[C@@H](Cc1ccc(C(F)(F)F)cc1)C(=O)O; NMePhe(4-Me) = CN[C@@H](Cc1ccc(C)cc1)C(=O)O; NMeGly(cPent) = CN[C@H](C(=O)O)C1CCCC1; Aze(3S-Me) = C[C@H]1CN[C@@H]1C(=O)O; NMeD = CN[C@@H](CC(=O)O)C(=O)O; NMeL = CN[C@@H](CC(C)C)C(=O)O; NMeS = CN[C@@H](CO)C(=O)O; Morpholide = C1CN(*)CCO1; Ac5c = NC1(C(=O)O)CCCC1; Aze = O=C(O)[C@@H]1CCN1; Sar = CNCC(=O)O
Overview of reported pKd across a group of compounds:
# pKd = -log10(concentration in molar units)

As a guide, the following entries are already answered.
Inquiry: Any idea what pKd was measured for CCCN1C(=O)[C@@H]2CCN2C(=O)[C@@H]2[C@@H](C)CN2C(=O)[C@H]([C@@H](C)CC)NC(=O)[C@H](CC(C)C)N(C)C(=O)C[C@@H](C(=O)N2CCOCC2)N(C)C(=O)[C@H](C2CCCC2)N(C)C(=O)C2(CCCC2)NC(=O)[C@@H]2CCCN2C(=O)[C@H](CCc2ccc(C(F)(F)F)c(Cl)c2)NC(=O)CN(C)C(=O)[C@@H]1Cc1ccc(C(F)(F)F)cc1 [PP0279] ([NMeL]I[Aze(3S-Me)][Aze][NPrPhe(4-CF3)][Sar][hPhe(3-Cl-4-CF3)]P[Ac5c][NMeGly(cPent)][NMeD]-Morpholide; lactam N-11) ?
Reply text: 9.44

Inquiry: Please answer likewise for CCO[C@@H]1C[C@H]2C(=O)NC3(CCCC3)C(=O)N(C)[C@@H](C3CCCC3)C(=O)N(C)[C@H](C(=O)N3CCOCC3)CC(=O)N(C)[C@@H](CC(C)C)C(=O)N[C@@H]([C@@H](C)CC)C(=O)N(C)CC(=O)N(C)[C@H]3CCCCN(C3=O)[C@@H](Cc3ccc(C(F)(F)F)cc3)C(=O)N(C)CC(=O)N[C@@H](CCc3cc(F)c(C(F)(F)F)c(F)c3)C(=O)N2C1
Reply text: 10.44

Inquiry: And CCO[C@@H]1C[C@H]2C(=O)NC3(CC(C)(C)C3)C(=O)N(C)[C@@H](C(CC)CC)C(=O)N(C)[C@H](C(=O)N(C)C)CC(=O)N(C)[C@H]3CCC/C=C/c4ccc(cc4)C[C@@H](C(=O)N(C)CC(=O)N[C@@H](CCc4cc(F)c(C(F)(F)F)c(F)c4)C(=O)N2C1)N1CC/C=C\C[C@@H](C1=O)N(C)C(=O)CN(C)C(=O)[C@H]([C@@H](C)CC)NC3=O ?
Reply text: 10.07

Inquiry: Item: CC[C@H](C)[C@@H]1NC(=O)[C@H](CC(C)C)N(C)C(=O)C[C@@H](C(=O)N2CCOCC2)N(C)C(=O)[C@H](C2CCCC2)N(C)C(=O)C2(CCCC2)NC(=O)[C@@H]2CCCN2C(=O)[C@H](CCc2ccc(C(F)(F)F)c(Cl)c2)NC(=O)CN(C)C(=O)[C@H](Cc2ccc(C)cc2)N(C)C(=O)[C@H](CO)N(C)C(=O)CN(C)C1=O [PP0037] ([NMeL]I[Sar][NMeS][NMePhe(4-Me)][Sar][hPhe(3-Cl-4-CF3)]P[Ac5c][NMeGly(cPent)][NMeD]-Morpholide; lactam N-11)
Reply text: 8.12

Now consider the entry below.
Inquiry: Look up pKd for this compound: CC[C@H](C)[C@@H]1NC(=O)[C@H](CC)N(C)C(=O)C[C@@H](C(=O)N(C)C)N(C)C(=O)[C@H](C2CCCC2)N(C)C(=O)C2(CCC2)NC(=O)[C@@H]2CCN2C(=O)[C@H](CCc2cc(F)c(C(F)(F)F)c(F)c2)NC(=O)CN(C)C(=O)[C@H](Cc2ccc(C(F)(F)F)cc2)N2CCCC[C@@H](C2=O)N(C)C(=O)CN(C)C1=O
Reply text: 10.12
